Where these numbers come from: the supplement of paper PMC9112550

Test system: Escherichia coli TOP10;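 also: peptides expressed intracellularly from a pBAD plasmid library in pooled LB shake-flask culture, induced with 0.3% L-arabinose, DNA abundance read by NGS, three biological replicates, DESeq2 with apeglm shrinkage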
Assay: shrunken log2 fold change of peptide-encoding DNA abundance (4.5 h post-induction vs induction); higher = less antimicrobial activity (less host growth inhibition)
Conditions: time post-induction: 4.5 h; library: site-saturation at positions 5, 18, 19, 20
Listed here: items and their measured shrunken log2 fold change.
Returns: the value as a bare number; no unit string appended.

// known answers, use as guide
Challenge: Dear colleague, I am looking for the recorded shrunken log2 fold change of the following sequence: RRIRARPPRLPRPRPRPYTMPRP
Response given: -0.301

Challenge: Likewise for RRIRMRPPRLPRPRPRPSEHPRP ?
Response given: 0.0665

More entries:
Challenge: Given RRIRMRPPRLPRPRPRPKRCPRP , state its recorded shrunken log2 fold change.
Response given: 0.211

Challenge: Subsequent entry: RRIRPRPPRLPRPRPRPQMYPRP
Response given: -0.338

Challenge: Let us now turn to RRIRHRPPRLPRPRPRPAQDPRP
Response given: 0.0349

Challenge: # iterate: RRIRRRPPRLPRPRPRPSCFPRP
Response given: -0.0896

Challenge: Also need RRIRERPPRLPRPRPRPYMPPRP , thanks.
Response given: -0.429

Challenge: Now try RRIRNRPPRLPRPRPRPVIPPRP .
Response given: -0.462
